Biological target: UniProt:Q13002
Sequence (Q13002 whole entry): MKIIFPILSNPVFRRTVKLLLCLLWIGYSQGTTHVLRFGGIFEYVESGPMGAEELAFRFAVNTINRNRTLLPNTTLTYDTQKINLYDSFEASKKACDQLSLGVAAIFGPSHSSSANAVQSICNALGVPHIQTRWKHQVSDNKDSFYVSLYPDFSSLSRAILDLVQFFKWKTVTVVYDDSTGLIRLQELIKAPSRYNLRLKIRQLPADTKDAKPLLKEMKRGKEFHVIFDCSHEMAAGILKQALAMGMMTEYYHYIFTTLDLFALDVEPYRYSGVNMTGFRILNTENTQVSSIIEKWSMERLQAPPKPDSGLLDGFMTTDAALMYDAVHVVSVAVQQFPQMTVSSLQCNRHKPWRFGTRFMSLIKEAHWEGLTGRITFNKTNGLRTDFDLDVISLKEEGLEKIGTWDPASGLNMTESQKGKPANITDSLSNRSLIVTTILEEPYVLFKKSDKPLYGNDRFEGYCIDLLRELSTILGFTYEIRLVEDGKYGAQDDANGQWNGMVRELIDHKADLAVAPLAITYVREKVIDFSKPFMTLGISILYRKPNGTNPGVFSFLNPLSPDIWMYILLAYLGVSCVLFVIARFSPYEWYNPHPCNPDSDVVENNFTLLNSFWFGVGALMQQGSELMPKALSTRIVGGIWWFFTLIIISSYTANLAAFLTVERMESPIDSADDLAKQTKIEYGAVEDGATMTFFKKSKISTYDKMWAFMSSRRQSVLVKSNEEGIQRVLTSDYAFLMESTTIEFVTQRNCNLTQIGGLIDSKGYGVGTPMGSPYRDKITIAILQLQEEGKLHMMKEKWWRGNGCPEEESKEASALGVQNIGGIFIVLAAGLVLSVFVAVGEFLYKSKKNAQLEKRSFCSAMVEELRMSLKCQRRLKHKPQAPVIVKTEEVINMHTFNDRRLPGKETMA
Test: Compound was tested for agonistic activity at Glutamate receptor 6 using HEK293 cells
REPORTED_METRIC: EC50

>  <SMILES_STR>
N[C@@H](CC(C(=O)O)=C1CCCC1)C(=O)O

>  <EC50>
> 100 µM

$$$$

Now for the molecule whose EC50 we want.
Note down EC50 recorded for CC/C=C(/C[C@H](N)C(=O)O)C(=O)O
> 300 µM

====

Let's go through some recorded Ki values for Glutamate receptor 2 (Homo sapiens, UniProt P42262) together.
REPORTED_METRIC: Ki (µM)

A. N[C@@H](CC(C(=O)O)=C1CCCC1)C(=O)O
B. CCC(CC)=C(C[C@H](N)C(=O)O)C(=O)O
Two entries are listed, A and B . Which one carries the higher Ki? Write the label of whichever entry you select.
B
(B: 281 µM, A: 3.68 µM)
